Molecular target: HAT domain of human p300 (Homo sapiens, UniProt Q09472)
Sequence (Q09472 1195-1673): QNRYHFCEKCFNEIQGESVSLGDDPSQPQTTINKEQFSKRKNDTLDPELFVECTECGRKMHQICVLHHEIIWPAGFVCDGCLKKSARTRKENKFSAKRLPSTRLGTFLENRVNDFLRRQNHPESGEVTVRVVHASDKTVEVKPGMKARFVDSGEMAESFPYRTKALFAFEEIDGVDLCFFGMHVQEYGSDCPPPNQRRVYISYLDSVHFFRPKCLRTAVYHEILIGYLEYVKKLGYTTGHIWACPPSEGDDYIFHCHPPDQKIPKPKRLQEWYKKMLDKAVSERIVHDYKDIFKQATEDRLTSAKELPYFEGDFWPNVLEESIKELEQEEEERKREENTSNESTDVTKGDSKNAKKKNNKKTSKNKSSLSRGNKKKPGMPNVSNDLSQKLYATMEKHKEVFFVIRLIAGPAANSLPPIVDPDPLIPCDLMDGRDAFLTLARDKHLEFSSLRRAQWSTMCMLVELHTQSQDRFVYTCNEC
Assay: Inhibition of p300-HAT
Type: biochemical
Settings: tested up to 10 μM
EXPERIMENTAL_ENDPOINT: inhibitory activity against p300 HAT (in words)

SMILES_NOTATION: CC(C)(C)c1ccc(-c2cc(CN3CCNCC3)sc2-c2ccc(C(C)(C)C)cc2)cc1
REPORTED_VALUE: Loss of activity

SMILES_NOTATION: CC(C)(C)c1ccc(-c2csc(C(=O)NCC3CCNCC3)n2)cc1
REPORTED_VALUE: Loss of activity

SMILES_NOTATION: CC(C)(C)c1ccc(-c2csc(CNCC3CCNCC3)n2)cc1
REPORTED_VALUE: Loss of activity
